Listed next: entries and their corresponding Brain IL12 Pro (Protection).
System: interleukin-12 (IL-12) from brain homogenate
Assay: Hangover study, IL-12 from brain homogenate, alcohol 1 day
Assay type: in vivo, Wistar albino rats
Conditions: 1 Day alcohol
Where a SMILES comes first, the peptide text is derived from it.
EXPERIMENTAL READOUT: Brain IL12 Pro (Protection) (%)

INSERT INTO results (compound, reported_measurement) VALUES
  ('OC[C@@H](O)[C@@H](O)[C@H](O)[C@H](O)CO [0.5 Man, D-Mannitol]', 4.25),
  ('C[C@H](N)C(=O)N[C@@H](CCC(N)=O)C(=O)O [1.25 DP, L-Ala-L-Gln] (H-Ala-Gln-OH)', 7.02),
  ('C[C@H](N)C(=O)N[C@@H](CCC(N)=O)C(=O)O [2.0 DP, L-Ala-L-Gln] (H-Ala-Gln-OH)', 26.34),
  ('CC1(C(=O)O)CCC2(C)CCC3(C)C(=CC(=O)C4C5(C)CCC(OC6OC(C(=O)O)C(O)C(O)C6OC6OC(C(=O)O)C(O)C(O)C6O)C(C)(C)C5CCC43C)C2C1 (stereo not drawn) [0.04a GA, 18α-GA]', 0.1),
  ('C[C@H](N)C(=O)N[C@@H](CCC(N)=O)C(=O)O [1.5 DP, L-Ala-L-Gln] (H-Ala-Gln-OH)', 18.26);
